System: CRL-7250
Experiment: Cytotoxic Profiling of Annotated Libraries Using Quantitative High-Throughput Screening (AID 1296008); further: on the % scale 0 is the no-effect control and ±100 the full control effect; nearly all actives have a fitted effect of over 60% in size
Conditions: Five cell lines viability, CellTiter-Glo ATP luminescence, 48-72 h; hits give low values
Records with an inconclusive call do not appear.
recorded metric: max response (%)
Output spec: scalar in %, unitless text.

Would you please look over these solved cases?
molecule="CC(O)CCc1ccc(O[C@@H]2O[C@H](CO)[C@@H](O)[C@H](O)[C@H]2O)cc1 (some centres undefined)" recorded_value=0.631
molecule=CC(C)NC(=O)c1ccc(C#Cc2ccncc2)cn1 recorded_value=-8.3
molecule=C=C1CC[C@@H]2[C@](C)(CO)[C@H](O[C@@H]3O[C@H](CO)[C@@H](O)[C@H](O)[C@H]3O)CC[C@@]2(C)[C@@H]1C/C=C1/C(=O)OC[C@H]1O recorded_value=-3.97

Please find the next molecule below.
Please report the measured max response for Cc1cn(-c2cc(NC(=O)c3ccc(C)c(Nc4nccc(-c5cnccn5)n4)c3)cc(C(F)(F)F)c2)cn1 tested on CRL-7250. -3.34
